- MEASUREMENT DESCRIPTION: Microsome stability assay, human liver microsomes
- Format: in vitro ADME
- CONDITION NOTES: human, human liver microsomes, pooled; 1 μM compound, 0.5 mg/mL microsomal protein, NADPH, 37° C.; read-out: Microsome Stability Human liver microsomes Cl
ASSAY ENDPOINT: microsomal CLint at 1 h, 1 µM (µL/min/mg)

[
  {
    "MOLECULE": "CCC1Cc2cc(C)ccc2C(NC(=O)c2ccc(C(F)(F)F)[nH]c2=O)C1 (stereo not shown) [Compound 388]",
    "ASSAY ENDPOINT": "microsomal CLint at 1 h, 1 µM",
    "UNIT NAME": "µL/min/mg",
    "RESULT NUMBER": 150
  },
  {
    "MOLECULE": "CCC1CCc2cc(OC)ccc2C1NC(=O)c1ccc(C(F)(F)F)[nH]c1=O (stereo not shown) [Compound 299]",
    "ASSAY ENDPOINT": "microsomal CLint at 1 h, 1 µM",
    "UNIT NAME": "µL/min/mg",
    "RESULT NUMBER": 66.8
  },
  {
    "MOLECULE": "O=C(NC1c2ccc(Cl)cc2Oc2cccc(Cl)c21)c1ccc(C(F)(F)F)[nH]c1=O (stereo not shown) [Compound 51]",
    "ASSAY ENDPOINT": "microsomal CLint at 1 h, 1 µM",
    "UNIT NAME": "µL/min/mg",
    "RESULT NUMBER": 23
  },
  {
    "MOLECULE": "Cc1ccc2c(c1)CCC(C)C2NC(=O)c1ccc(C(F)(F)F)[nH]c1=O (stereo not shown) [Compound 294]",
    "ASSAY ENDPOINT": "microsomal CLint at 1 h, 1 µM",
    "UNIT NAME": "µL/min/mg",
    "RESULT NUMBER": 643
  },
  {
    "MOLECULE": "CCCC1CCc2cc(C)ccc2C1NC(=O)c1ccc(C(F)(F)F)[nH]c1=O (stereo not shown) [Compound 285]",
    "ASSAY ENDPOINT": "microsomal CLint at 1 h, 1 µM",
    "UNIT NAME": "µL/min/mg",
    "RESULT NUMBER": 137
  },
  {
    "MOLECULE": "CCC1Cc2cc(OC)ccc2C1NC(=O)c1ccc(C(F)(F)F)[nH]c1=O (stereo not shown) [Compound 295]",
    "ASSAY ENDPOINT": "microsomal CLint at 1 h, 1 µM",
    "UNIT NAME": "µL/min/mg",
    "RESULT NUMBER": 221
  },
  {
    "MOLECULE": "COc1ccc2c(c1)Sc1ccccc1C2NC(=O)c1ccc(C(F)F)[nH]c1=O (stereo not shown) [Compound 272]",
    "ASSAY ENDPOINT": "microsomal CLint at 1 h, 1 µM",
    "UNIT NAME": "µL/min/mg",
    "RESULT NUMBER": 12.1
  },
  {
    "MOLECULE": "Cc1ccc2c(c1)Oc1cc(Cl)ccc1C2NC(=O)c1ccc(C(F)(F)F)[nH]c1=O (stereo not shown) [Compound 138]",
    "ASSAY ENDPOINT": "microsomal CLint at 1 h, 1 µM",
    "UNIT NAME": "µL/min/mg",
    "RESULT NUMBER": 17.8
  },
  {
    "MOLECULE": "Cc1ccc2c(c1)Sc1cc(C)ccc1C2NC(=O)c1cc(-c2ccccc2)c(C(F)(F)F)[nH]c1=O [Compound 306]",
    "ASSAY ENDPOINT": "microsomal CLint at 1 h, 1 µM",
    "UNIT NAME": "µL/min/mg",
    "RESULT NUMBER": 72.9
  },
  {
    "MOLECULE": "Cc1ccc2c(c1)[C@H](O)CC[C@H]2NC(=O)c1ccc(C(F)(F)F)[nH]c1=O [Compound 311]",
    "ASSAY ENDPOINT": "microsomal CLint at 1 h, 1 µM",
    "UNIT NAME": "µL/min/mg",
    "RESULT NUMBER": 10.5
  },
  {
    "MOLECULE": "COc1ccc2c(c1)CC(OC)C2NC(=O)c1ccc(C(F)(F)F)[nH]c1=O (stereo not shown) [Compound 352]",
    "ASSAY ENDPOINT": "microsomal CLint at 1 h, 1 µM",
    "UNIT NAME": "µL/min/mg",
    "RESULT NUMBER": 93.5
  },
  {
    "MOLECULE": "CCC1CCc2cc(C)ccc2C1NC(=O)c1ccc(C(F)(F)F)[nH]c1=O (stereo not shown) [Compound 543]",
    "ASSAY ENDPOINT": "microsomal CLint at 1 h, 1 µM",
    "UNIT NAME": "µL/min/mg",
    "RESULT NUMBER": 364
  },
  {
    "MOLECULE": "CC(C)Cc1ccc(C(NC(=O)c2ccc(C(F)(F)F)[nH]c2=O)c2ccccc2)cc1 (stereo not shown) [Compound 13]",
    "ASSAY ENDPOINT": "microsomal CLint at 1 h, 1 µM",
    "UNIT NAME": "µL/min/mg",
    "RESULT NUMBER": 138
  },
  {
    "MOLECULE": "Nc1cccc2c(NC(=O)c3ccc(C(F)(F)F)[nH]c3=O)cccc12 [Compound 228]",
    "ASSAY ENDPOINT": "microsomal CLint at 1 h, 1 µM",
    "UNIT NAME": "µL/min/mg",
    "RESULT NUMBER": 16.4
  },
  {
    "MOLECULE": "COc1ccc(C(NC(=O)c2ccc(C(F)(F)F)[nH]c2=O)c2ccc(OC)cc2)cc1 [Compound 24]",
    "ASSAY ENDPOINT": "microsomal CLint at 1 h, 1 µM",
    "UNIT NAME": "µL/min/mg",
    "RESULT NUMBER": 131
  },
  {
    "MOLECULE": "Cc1ccc2c(c1)Sc1cc(C)ccc1C2NC(=O)c1ccc(C(F)(F)F)[nH]c1=O [Compound 252]",
    "ASSAY ENDPOINT": "microsomal CLint at 1 h, 1 µM",
    "UNIT NAME": "µL/min/mg",
    "RESULT NUMBER": 11
  },
  {
    "MOLECULE": "Cc1ccc2c(c1)SC(C)CC2NC(=O)c1ccc(C(F)(F)F)[nH]c1=O (stereo not shown) [Compound 385]",
    "ASSAY ENDPOINT": "microsomal CLint at 1 h, 1 µM",
    "UNIT NAME": "µL/min/mg",
    "RESULT NUMBER": 643
  },
  {
    "MOLECULE": "CC1CCc2cc(Cl)ccc2C1NC(=O)c1ccc(C(F)(F)F)[nH]c1=O (stereo not shown) [Compound 293]",
    "ASSAY ENDPOINT": "microsomal CLint at 1 h, 1 µM",
    "UNIT NAME": "µL/min/mg",
    "RESULT NUMBER": 231
  },
  {
    "MOLECULE": "Cc1ccccc1C(NC(=O)c1ccc(C(F)(F)F)[nH]c1=O)c1ccccc1 (stereo not shown) [Compound 5]",
    "ASSAY ENDPOINT": "microsomal CLint at 1 h, 1 µM",
    "UNIT NAME": "µL/min/mg",
    "RESULT NUMBER": 52
  }
]
